Measured inhibition of individual entries
Biological target: Protein deacetylase HDAC6 (Homo sapiens) (UniProt Q9UBN7)
Sequence (Q9UBN7 whole entry): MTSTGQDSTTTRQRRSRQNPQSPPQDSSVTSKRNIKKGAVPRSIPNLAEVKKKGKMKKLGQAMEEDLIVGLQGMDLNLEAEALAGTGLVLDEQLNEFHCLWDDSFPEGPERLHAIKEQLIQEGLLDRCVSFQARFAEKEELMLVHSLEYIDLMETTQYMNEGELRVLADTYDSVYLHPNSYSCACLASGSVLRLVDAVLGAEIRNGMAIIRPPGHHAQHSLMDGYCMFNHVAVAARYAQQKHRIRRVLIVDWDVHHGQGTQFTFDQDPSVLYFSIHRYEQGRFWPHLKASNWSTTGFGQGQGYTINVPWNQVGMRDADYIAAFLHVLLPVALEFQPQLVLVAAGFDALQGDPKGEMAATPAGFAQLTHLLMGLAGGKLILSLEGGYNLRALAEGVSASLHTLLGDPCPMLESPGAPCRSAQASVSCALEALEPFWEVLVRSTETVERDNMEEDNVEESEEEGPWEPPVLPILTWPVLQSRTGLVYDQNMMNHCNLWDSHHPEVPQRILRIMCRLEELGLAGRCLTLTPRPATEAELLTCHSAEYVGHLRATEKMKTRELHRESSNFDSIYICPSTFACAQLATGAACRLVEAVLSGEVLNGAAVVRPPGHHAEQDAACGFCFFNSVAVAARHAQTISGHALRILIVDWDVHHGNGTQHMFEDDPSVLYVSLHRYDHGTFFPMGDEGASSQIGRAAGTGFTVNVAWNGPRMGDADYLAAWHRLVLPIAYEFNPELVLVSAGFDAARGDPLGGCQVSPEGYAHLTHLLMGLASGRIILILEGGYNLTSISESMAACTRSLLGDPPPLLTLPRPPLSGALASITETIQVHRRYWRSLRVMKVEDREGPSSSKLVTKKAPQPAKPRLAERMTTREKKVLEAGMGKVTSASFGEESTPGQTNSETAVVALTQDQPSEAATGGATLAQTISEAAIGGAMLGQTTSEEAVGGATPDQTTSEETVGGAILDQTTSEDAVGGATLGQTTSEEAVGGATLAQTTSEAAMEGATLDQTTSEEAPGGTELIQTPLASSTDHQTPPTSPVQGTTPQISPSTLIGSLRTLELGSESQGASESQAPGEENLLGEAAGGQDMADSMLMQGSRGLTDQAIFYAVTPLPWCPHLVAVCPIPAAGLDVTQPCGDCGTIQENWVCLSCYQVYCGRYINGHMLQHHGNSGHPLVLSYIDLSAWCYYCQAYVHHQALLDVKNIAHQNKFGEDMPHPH
Conditions: at 10 µM
Screen size: about 5,600 compounds; about 150 (2.7%) showed an effect of 50% or more. The full list was thinned out, with strong results kept by preference.
Observation Type: inhibition (%)

INSERT INTO results (compound, observation_type, value_unit, number) VALUES
  ('C[C@H](NC(=O)Cc1cc(F)cc(F)c1)C(=O)N[C@H](C(=O)OC(C)(C)C)c1ccccc1', 'inhibition', '%', -6.8),
  ('COC(=O)c1ccccc1NC(=O)c1ccc(F)cc1', 'inhibition', '%', 0.65),
  ('O=C(CCCCCCCn1cc(-c2cccnc2)nn1)Nc1ccccc1-c1ccccc1', 'inhibition', '%', -3.08),
  ('CC1CCc2c(cc(Br)c(F)c2Br)N1C=O (stereo unspecified)', 'inhibition', '%', 3.01),
  ('O=C(O)CCc1c(C(=O)O)[nH]c2cc(Cl)cc(Cl)c12', 'inhibition', '%', 4),
  ('Cc1nc(C#Cc2ccnc(Cl)c2)c(C)n1-c1ccc(F)cc1', 'inhibition', '%', -3.13),
  ('O=C(CCCCCCC(=O)NO)NO', 'inhibition', '%', 96.5),
  ('CSc1nc(-c2ccc(F)cc2)c(-c2ccnc(NC(C)c3ccccc3)c2)[nH]1 (stereo unspecified)', 'inhibition', '%', -0.06),
  ('O=C1NC(=O)/C(=C/c2cccc(C(F)(F)F)c2)S1', 'inhibition', '%', 8.21),
  ('Cc1ccc2c(N3CCN(CCc4cccc(N5CCNC5=O)c4)CC3)cccc2n1', 'inhibition', '%', -3.2),
  ('COc1cc2nc(N3CCN(C(=O)C4COc5ccccc5O4)CC3)nc(N)c2cc1OC (stereo unspecified)', 'inhibition', '%', -3.15),
  ('COc1cc2nc(N3CCN(C(=O)C4CCCO4)CC3)nc(N)c2cc1OC (stereo unspecified)', 'inhibition', '%', 79),
  ('Cc1sc(C)c(C(=O)NC2(c3ccc(C(=O)O)cc3)CC2)c1Cc1ccc(C(F)(F)F)cc1', 'inhibition', '%', 3.37),
  ('CCCCCCCCCCCCCCCC[n+]1ccn(Cc2ccccc2)c1C', 'inhibition', '%', -2.57),
  ('O=C1[C@@H]2[C@H]3CC[C@H](C3)[C@@H]2C(=O)N1CCCCN1CCN(c2ncccn2)CC1', 'inhibition', '%', 6.98),
  ('O=C(c1cc(C2CC2)on1)N(C1CCCCC1)C1CCCCC1', 'inhibition', '%', 9.33),
  ('O=C(NC1CCC1)c1ccc(C#Cc2cccc(F)c2)nc1', 'inhibition', '%', 24.9),
  ('Cc1nccc2[nH]c(=O)ccc12', 'inhibition', '%', -0.8),
  ('COc1cc2nc(N3CCN(C(=O)COc4c(OC)cccc4C(C)C)CC3)nc(N)c2cc1OC', 'inhibition', '%', 4.56),
  ('O=C1S/C(=C\c2ccc(OCc3cccc(B(O)O)c3)cc2)C(=O)N1Cc1ccc(F)cc1', 'inhibition', '%', 8.15),
  ('COc1cc2c(cc1OC)CN(C(=O)[C@@H](NCc1ccncc1)C(C)(C)C)CC2', 'inhibition', '%', -4.01),
  ('O=C(N/N=C/c1ccccc1O)c1ccccc1O', 'inhibition', '%', 77.3),
  ('CC(=O)N[C@H](Cc1c[nH]c2ccccc12)C(=O)OCc1cc(C(F)(F)F)cc(C(F)(F)F)c1', 'inhibition', '%', -8.38),
  ('N#C/C(=C\c1ccc(O)c(O)c1)C(=O)Nc1ccccc1', 'inhibition', '%', 93.8),
  ('CCCCCCOc1cc2c(cc1N(C)c1ncc(C(=O)O)cn1)C(C)(C)CCC2(C)C', 'inhibition', '%', 0.82),
  ('CN(C)CC(O)Cn1c2ccc(Br)cc2c2cc(Br)ccc21 (stereo unspecified)', 'inhibition', '%', -0.45),
  ('NC(=O)c1cccnc1', 'inhibition', '%', 9.25),
  ('CC(C)Oc1ccc(Cc2ccc(NC3=NCCN3)cc2)cc1', 'inhibition', '%', 18.9),
  ('NC(=O)CCCCn1ccc(/N=C(\N)NCC(F)(F)F)n1', 'inhibition', '%', -7.78),
  ('CC(=O)C1=C(O)C=C2Oc3c(C(C)=O)c(O)c(C)c(O)c3[C@@]2(C)C1=O', 'inhibition', '%', -7.8),
  ('C/C(=N\NC(=O)C(NC(=O)c1ccccc1)c1n[nH]c(=O)c2ccccc12)c1cccc(Br)c1 (stereo unspecified)', 'inhibition', '%', 0.86);
